- Tested system: T1, TNFR1 (Homo sapiens, UniProt P19438)
- T1 chain: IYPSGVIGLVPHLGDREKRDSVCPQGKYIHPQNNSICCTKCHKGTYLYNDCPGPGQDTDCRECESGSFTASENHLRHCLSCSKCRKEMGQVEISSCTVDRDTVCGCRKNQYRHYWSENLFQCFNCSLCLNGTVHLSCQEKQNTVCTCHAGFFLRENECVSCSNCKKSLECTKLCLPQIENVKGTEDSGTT
- Test name: yeast display SC50
Observation type: apparent Kd (screen) (pM)
Give the number; pM is assumed, so skip it.

Kindly note the recorded apparent Kd (screen) for K69F (designed binder) SMEEEVEKAAKEYEKKKKEAIEKHLEKLKAKDKEAAERFLKELEEAAKEYAKDEAKTMSEEEAKRRAKFYKEKVLLSELSEEEQKEIKEAEEKLVRTILKYVEEAAK , which is 869

Given item D53P (designed binder) SMEEEVEKAAKEYEKKKKEAIEKHLEKLKAKDKEAAERFLKELEEAAKEYAKPEAKTMSEEEAKRRAKKYKEKVLLSELSEEEQKEIKEAEEKLVRTILKYVEEAAK , the value recorded as its apparent Kd (screen) is 869

Briefly, apparent Kd (screen) measured for E37K (designed binder) SMEEEVEKAAKEYEKKKKEAIEKHLEKLKAKDKEAAKRFLKELEEAAKEYAKDEAKTMSEEEAKRRAKKYKEKVLLSELSEEEQKEIKEAEEKLVRTILKYVEEAAK : 490

apparent Kd (screen) in this record for E89Y (designed binder) SMEEEVEKAAKEYEKKKKEAIEKHLEKLKAKDKEAAERFLKELEEAAKEYAKDEAKTMSEEEAKRRAKKYKEKVLLSELSEEEQKEIKYAEEKLVRTILKYVEEAAK : 2250
